- ASSAY_COMMENT: Decomposition kinetics monitored by UV-Vis spectroscopy
- Format: physicochemical
- TEST_PARAMETERS: PBS, pH 7.4, pH 7.4 and 37° C.; read-out: half-life (converted)
READOUT_NAME: half-life

Fill in: half-life of CO/N=C(\C)C1(NO)C(=O)N(c2ccccc2)N=C1C (stereo not shown) is ___
~10 min

---

- ASSAY_COMMENT: Decomposition kinetics monitored by UV-Vis spectroscopy
- Assay type: physicochemical
- TEST_PARAMETERS: PBS, pH 7.4, footnote c not given; pH 7.4, 37° C.; read-out: t1/2
READOUT_NAME: half-life (min)
Write the number in min without appending the unit.

Param item = CO/N=C(\C)C1(NO)C(=O)OC(C)(C)OC1=O ; retrieve measured half-life.
0.9

# input compound: CO/N=C(\C)C1(NO)C(=O)N(c2ccccc2)N=C1C (centres unmarked) ; wanted: its half-life
9.5

---

Assignment: determine reported half-life for the given molecules.
- ASSAY_COMMENT: Decomposition monitored by 1H NMR spectroscopy (carbanion yield, kinetics, half-life)
- Type: physicochemical
- TEST_PARAMETERS: PBS, pH 7.4, Condition G: pH 7.4, 37° C., 10% D2O, 0.25M PBS, 100 μL DTPA, air (1H NMR)
The answer is to be given in h; state only the numeric part.

Recorded half-life of CC1=NN(c2ccc(Cl)cc2)C(=O)C1(C)NO (centres unmarked) [Compound 10a] , please.
84

// returns reported half-life for input CC1=NN(c2ccccc2Cl)C(=O)C1(C)NO (centres unmarked) [Compound 11a]
120

---

- ASSAY_COMMENT: Decomposition kinetics monitored by UV-Vis spectroscopy
- Assay type: physicochemical
- TEST_PARAMETERS: buffer, pH 7.4, pH 7.4 and 37° C.; read-out: half-life (converted)
READOUT_NAME: half-life

# query: half-life of entry CO/N=C(\C)C1(NO)C(=O)N(C)C(=O)N(C)C1=O [Compound 4a]
~1 min

---

Hi there, I'd appreciate the recorded half-life for every entry that follows.
- ASSAY_COMMENT: Decomposition monitored by 1H NMR spectroscopy (carbanion yield, kinetics, half-life)
- Format: physicochemical
- TEST_PARAMETERS: PBS, pH 7.4, Condition B: pH 7.4, 37° C., 10% D2O, 0.25M PBS, no chelator, air (1H NMR)
- From the text: […] In each case, the bottom spectrum was collected at the start of the experiment, and the top spectrum after complete decomposition. NMR spectra were obtained on a Bruker Avance 400 MHz FT-NMR spectrometer. […] High-resolution mass spectra were obtained on a VG Analytical VG70SE magnetic sector mass spectrometer operating in fast atom bombardment (FAB) mode. […]
Give the number; h is assumed, so skip it.

# get_value(readout='half-life', item= CC1=NN(c2ccccc2)C(=O)C1(C)NO (centres unmarked) [Compound 8a] )
16

I'd like to know its half-life. The molecule in question is CC1=NN(C)C(=O)C1(C)NO (centres unmarked) [Compound 9a]
48

---

- ASSAY_COMMENT: Decomposition monitored by 1H NMR spectroscopy (carbanion yield, kinetics, half-life)
- Type: physicochemical
- TEST_PARAMETERS: PBS, pH 7.4, Condition D: pH 7.4, 37° C., 10% D2O, 0.25M PBS, 100 μL DTPA, GSH (2 equiv.), argon (1H NMR)
READOUT_NAME: half-life (h)
# number only, unit h dropped from output

Look at this molecule and give its reported half-life. CC1=NN(c2ccccc2)C(=O)C1(C)NO (stereo not shown)
50
